system: UACC-62; experiment: Cytotoxicity against human UACC62 cells at 10^-4 M after 48 hrs by SRB assay; type: functional; details: UACC-62, 48 h, read-out: GI
VALUE TYPE: inhibition of growth at 100 µM (%)
Your answer should be a plain number; it is taken to be in %.

QUERY: Could you please provide reported inhibition of growth at 100 µM for CCN(Cc1nc2cc(C(F)(F)F)ccc2nc1-c1ccccc1)c1ccc(OC)c(OC)c1 ? Thanks!
RESULT: 195

QUERY: Write down inhibition of growth at 100 µM measured for item C#CCN(Cc1nc2cc(C(F)(F)F)ccc2nc1-c1ccccc1)c1ccc(OC(F)(F)F)cc1
RESULT: 64

QUERY: For the compound C#CCN(Cc1nc2cc(C(F)(F)F)ccc2nc1-c1ccccc1)c1ccc(C)cc1 , give its measured inhibition of growth at 100 µM value.
RESULT: 188

QUERY: Please look at this compound and report its inhibition of growth at 100 µM: C#CCN(Cc1nc2cc(C(F)(F)F)ccc2nc1-c1ccccc1)c1ccc(F)cc1
RESULT: 96

QUERY: Look up inhibition of growth at 100 µM of C#CCN(Cc1nc2cc(C(F)(F)F)ccc2nc1-c1ccccc1)c1ccc(F)c(F)c1 and report it.
RESULT: 73

----------
Record form. Attribute: inhibition of growth at 100 µM. Fill in for each entry.
test system: NCI/ADR-RES; assay: Cytotoxicity against human NCI/ADR-RES cells at 10^-4 M after 48 hrs by SRB assay; type: functional; details: read-out: GI
Express the result in % but write the number alone.

QUERY: With NCI/ADR-RES as the test system, provide measured inhibition of growth at 100 µM for this molecule: C#CCN(Cc1nc2cc(C(F)(F)F)ccc2nc1-c1ccccc1)c1ccc(C)cc1
RESULT: 195

QUERY: Give NCI/ADR-RES inhibition of growth at 100 µM for the following molecule: C#CCN(Cc1nc2cc(C(F)(F)F)ccc2nc1-c1ccccc1)c1ccc(F)c(F)c1
RESULT: 67

QUERY: Answer with inhibition of growth at 100 µM of C#CCN(Cc1nc2cc(C(F)(F)F)ccc2nc1-c1ccccc1)c1ccc(F)cc1 measured for NCI/ADR-RES.
RESULT: 108

QUERY: Please indicate recorded inhibition of growth at 100 µM of CCN(Cc1nc2cc(C(F)(F)F)ccc2nc1-c1ccccc1)c1ccc(OC)c(OC)c1 measured with NCI/ADR-RES.
RESULT: 84

----------
test system: HOP-62; test: Cytotoxicity against human HOP62 cells at 10^-4 M after 48 hrs by SRB assay; type: functional; details: HOP-62, 48 h, read-out: GI
VALUE TYPE: inhibition of growth at 100 µM (%)
Kindly provide the numeric value in % only, without the unit symbol.

QUERY: Assign inhibition of growth at 100 µM to the following record: CCN(Cc1nc2cc(C(F)(F)F)ccc2nc1-c1ccccc1)c1ccc(OC)c(OC)c1
RESULT: 195

QUERY: Consider the molecule C#CCN(Cc1nc2cc(C(F)(F)F)ccc2nc1-c1ccccc1)c1ccc(OC(F)(F)F)cc1 . State its measured inhibition of growth at 100 µM.
RESULT: 48

QUERY: Supply inhibition of growth at 100 µM value. Item: C#CCN(Cc1nc2cc(C(F)(F)F)ccc2nc1-c1ccccc1)c1ccc(C)cc1
RESULT: 199

From: ChEMBL document CHEMBL3120154
